Kindly supply the reported TGI values for the records listed here.
- System: SF-295 CNS
- MEASUREMENT_NOTES: NCI tumour cell line growth inhibition, 48 h

Query: Param item = O=C1c2cnccc2Cc2cccc3c2N1c1ccccc1S3 ; retrieve measured TGI.
Reply: 63.2 µM

Query: Entry Oc1[nH]c2ccccc2c1N=NC(=S)N1CCCCCC1 has what TGI?
Reply: 3.86 µM

Query: Report TGI for Cc1cc(-c2ccccc2)c(C)n1Cc1ccc(Cl)cc1 please.
Reply: 9.33 µM

Query: GET /values?readout=TGI&item= COc1ccc(C(=O)Nc2ncc(Cc3ccc(F)cc3)s2)cc1
Reply: 2.03 µM

Query: // returns reported TGI for input Cc1cc[c-]cc1.Fc1c[c-]c(-c2ccccn2)c(F)c1.N#CCC[PH+](CCC#N)c1ccccc1.[Pt+2]
Reply: 29.8 µM

Query: Look up TGI for this compound: COC(=O)Nc1nc2c(OC)c(OC)c(OC)cc2[nH]1
Reply: > 100 µM

Query: Which value of TGI has been reported for C/C1=C\CC[C@@](C)(O)[C@H]2C[C@H](CC/C(C)=C/CC1)C1(CC1)C(=O)O2 in the records?
Reply: 46.7 µM

Query: Quick one: TGI for O=C1OCC2=C1C(c1cccc(F)c1)c1cc3c(cc1N2CCO)OCCO3 (stereo not drawn) ?
Reply: > 50 µM

Query: Sample CC1=C(C(=O)Nc2ccccc2C)C(c2ccc(N(C)C)cc2)C(C(=O)Nc2ccccc2C)=C(C)N1 — what was its TGI?
Reply: > 100 µM

Query: Can you share its TGI? I mean this compound: O=c1c2cc(-c3ccccc3)cnc2sn1-c1ccc([N+](=O)[O-])cc1
Reply: > 100 µM

Query: Look up TGI: COc1cc(NCC(C#N)C#N)ccc1N=Nc1ccc([N+](=O)[O-])cc1
Reply: > 100 µM

Query: Form field: reported TGI of O=C(c1ccc(O)cc1)c1ccc(C(=O)c2ccc(O)cc2)cc1
Reply: > 100 µM

Query: Given O=C1Cc2ccccc2N1/N=C\c1ccc(O)cc1 , state its recorded TGI.
Reply: > 100 µM

Query: Which value of TGI has been reported for C[C@@H]1CN(Cc2ccc(/C=C/c3n[nH]c4ccc5nc(-c6cn[nH]c6C(F)(F)F)c6c(c5c34)CCCC6)cc2)C[C@H](C)O1 in the records?
Reply: 18.1 µM

Query: Entry under review: CC(=O)c1ccc2c(c1)oc(=O)n2CCN(C)C . Reported TGI?
Reply: > 100 µM

Query: Which value of TGI has been reported for COc1cc2c3c(cc(Cl)nc3c1OC)C(O)(CC(C)=O)C(=O)N2 (stereo not drawn) in the records?
Reply: > 100 µM

Query: Looking for the measured TGI of C#CCOCn1cnc2ncnc(Cl)c21 , can you help?
Reply: > 100 µM

Query: Which TGI value is on record for Cn1c(=O)c(C(c2ccccc2)c2c(O)c3ccccc3n(C)c2=O)c(O)c2ccccc21 ?
Reply: > 100 µM

Query: Any idea what TGI was measured for COc1cc(C2[C@H]3C(=O)N(c4ccc(Cc5ccc(N6C(=O)[C@@H]7ON(c8ccccc8)C(c8cc(OC)c(OC)c(OC)c8)[C@@H]7C6=O)cc5)cc4)C(=O)[C@H]3ON2c2ccccc2)cc(OC)c1OC (stereo partly drawn) ?
Reply: > 100 µM

Query: # lookup: TGI of Cn1cc(-c2csc(-c3cn(CCN4CCOCC4)c4ccc(F)cc34)n2)c2cccnc21
Reply: 7.15 µM

Query: TGI lookup needed for O=C1C[C@@H](c2ccccc2)NCCCCN(O)CCCN1 , thanks.
Reply: > 100 µM

Query: Consider the compound COc1cc(/C=C/C(=O)c2c(C)n([O-])c3cc(C)c(C)cc3[n+]2=O)cc(OC)c1OC and give its measured TGI.
Reply: 34.8 µM

Query: Reported TGI for CC1SC2=NC3=C(c4ccccc4C3=O)C(c3ccc(Br)cc3)N2C1=O (stereo not drawn) : what is it?
Reply: > 100 µM

Query: I would be grateful if you could share the reported TGI for COc1cc(Nc2ncc3c(n2)-c2ccc(Cl)cc2C(c2c(F)cccc2OC)=NC3)ccc1C(=O)O .
Reply: > 64.1 µM

Query: I'd like to know its TGI. The compound in question is O=C(c1ccc(Cl)cc1)N1N=C(c2ccc(Cl)cc2)CC1(O)c1cc(F)c(Cl)cc1Cl (stereo not drawn)
Reply: > 100 µM

Query: What does the record list as TGI for CC1NOC(NS(=O)(=O)c2ccc(N=Nc3c(O)c(C(=O)O)cc4ccccc34)cc2)C1C (stereo not drawn) ?
Reply: > 100 µM

Query: Look at this compound and give its reported TGI. FC1CCN(C2(c3cccs3)CCCCC2)CC1
Reply: > 100 µM

Query: If you can, please state the reported TGI value of O=C1C2C(C(=O)[N]1[Hg][c]1ccccc1)C1(Cl)C(Cl)=C(Cl)C2(Cl)C1(Cl)Cl (stereo not drawn) .
Reply: 36 µM
